// values below are reported selectivity ratio at 168 h
assayMethodText: Selectivity index, ratio of CC50 for cytotoxicity against human A549 cells to IC50 for antiviral activity against Human adenovirus 5 infected in 293beta5 cells assessed as inhibition of plaque formation after 7 days
Type: toxicity, cell-based
protocolConditions: read-out: Ratio CC50/IC50
Number, no unit, nothing else.

Solved cases below.
Asked: # return recorded selectivity ratio at 168 h for entry `CC(C)[C@H](NC(=O)c1cc(Cl)ccc1O)C(=O)Nc1cc(C(F)(F)F)cc(C(F)(F)F)c1`
Given back: 77.4

Asked: For the compound `O=C(Nc1cc(F)cc(C(F)(F)F)c1)c1ccccc1O` , report selectivity ratio at 168 h.
Given back: 15.2

Asked: For the compound `O=C(Nc1cc(F)cc(C(F)(F)F)c1)c1ccc(Cl)cc1O` , report selectivity ratio at 168 h.
Given back: 187

Asked: Query selectivity ratio at 168 h for `O=C(NCc1ccc(C(F)(F)F)cc1F)c1cc(Cl)ccc1O`
Given back: 34.6

---
Asked: Supply recorded selectivity ratio at 168 h for `O=C(N[C@H](Cc1ccccc1)C(=O)Nc1ccc([N+](=O)[O-])cc1Cl)c1cc(Cl)ccc1O` here.
Given back: 260

---

Tested on: Human adenovirus 5
assayMethodText: Antiviral activity against Human adenovirus 5 infected in 293beta5 cells assessed as inhibition of plaque formation incubated for 7 days by GFP reporter gene assay
Type: functional, organism-based
protocolConditions: Human mastadenovirus C, 293beta5, 168 h
pIC50: −log10 of the molar value.
Label Fulfilled for high-side pIC50 (at or above 6) and Not fulfilled for low-side pIC50 (below it).

Example entries begin here.
Asked: Does pIC50 meet or surpass 6 for `O=C(Nc1cc([N+](=O)[O-])ccc1F)c1cc(Cl)ccc1O` ?
Given back: Fulfilled

Asked: For this compound, is measured pIC50 6 or higher? `Cc1ccc(O)c(C(=O)Nc2cc(F)cc(C(F)(F)F)c2)c1`
Given back: Fulfilled

Asked: Could you please find out whether `O=C(Cc1cc(Cl)ccc1O)Nc1cc(F)cc(C(F)(F)F)c1` has pIC50 that meets 6 or exceeds it?
Given back: Not fulfilled

Asked: Textbook exercise: given the entry `O=C(NCc1ccc(F)cc1Cl)c1cc(Cl)ccc1O` , state whether its pIC50 is greater than or equal to 6.
Given back: Not fulfilled

Asked: Could you please find out whether `O=C(N[C@@H](Cc1ccccc1)C(=O)Nc1cc(C(F)(F)F)cc(C(F)(F)F)c1)c1cc(Cl)ccc1O` has pIC50 that meets 6 or exceeds it?
Given back: Fulfilled

Asked: Determine whether this compound has pIC50 no lower than 6: `CS(=O)(=O)Nc1ccc(Cl)cc1C(=O)NCC(=O)Nc1ccc([N+](=O)[O-])cc1Cl`
Given back: Not fulfilled

Asked: Determine whether this compound has pIC50 no lower than 6: `O=C(Nc1ccc(C(F)(F)F)cc1Cl)c1cc(Cl)ccc1O`
Given back: Fulfilled

Asked: Can `O=C(CNC(=O)c1cc(Cl)ccc1O)Nc1ccc([N+](=O)[O-])cc1Cl` be said to have pIC50 at or above 6?
Given back: Not fulfilled

Asked: Does pIC50 meet or surpass 6 for `C[C@H](NC(=O)c1cc(Cl)ccc1O)c1ccccc1` ?
Given back: Not fulfilled

Asked: Does pIC50 meet or surpass 6 for `O=C(Nc1ccc([N+](=O)[O-])cc1F)c1cc(Cl)ccc1O` ?
Given back: Fulfilled

Continuing:
Asked: Tell me whether pIC50 is at least 6 here: `O=C(Nc1ccc(F)c(F)c1)c1cc(Cl)ccc1O`
Given back: Fulfilled

Asked: I'd appreciate it if you could say whether `Cc1ccc(CNC(=O)c2cc(Cl)ccc2O)cc1` has pIC50 at least equal to 6.
Given back: Not fulfilled

Asked: Check if pIC50 >= 6 (inclusive). Item: `CC(C)[C@H](NC(=O)c1cc(Cl)ccc1O)C(=O)Nc1cc(C(F)(F)F)cc(C(F)(F)F)c1`
Given back: Fulfilled

Asked: Check if pIC50 >= 6 (inclusive). Item: `CC(C)[C@H](NC(=O)c1cc(Cl)ccc1O)C(=O)Nc1ccc(F)c(F)c1`
Given back: Not fulfilled

Asked: Does the reported pIC50 for O=C(Nc1ccc([N+](=O)[O-])cc1Cl)c1cc(Cl)ccc1O [NICLOSAMIDE] fall at or above the 6 mark?
Given back: Fulfilled

Asked: API: above_or_equal(metric=pIC50, cutoff=6) for item `O=C(NCc1ccc(Cl)cc1)c1cc(Cl)ccc1O`
Given back: Not fulfilled

Asked: Evaluate `O=C(N[C@H](Cc1ccccc1)C(=O)Nc1ccc([N+](=O)[O-])cc1Cl)c1cc(Cl)ccc1O` : pIC50 at minimum 6?
Given back: Fulfilled

Asked: Evaluate `O=C(NCc1ccc(C(F)(F)F)cc1)c1cc(Cl)ccc1O` : pIC50 at minimum 6?
Given back: Not fulfilled

Asked: Could you please find out whether `CC[C@@H](C)[C@H](NC(=O)c1cc(Cl)ccc1O)C(=O)Nc1ccc([N+](=O)[O-])cc1Cl` has pIC50 that meets 6 or exceeds it?
Given back: Fulfilled

Asked: Could you please find out whether `C[C@H](NC(=O)c1cc(Cl)ccc1O)C(=O)Nc1ccc([N+](=O)[O-])cc1Cl` has pIC50 that meets 6 or exceeds it?
Given back: Not fulfilled

Asked: Confirm if pIC50 reported for the compound `O=C(Nc1cc(F)cc(C(F)(F)F)c1)c1ccc(Cl)cc1O` is 6 or above.
Given back: Fulfilled

Asked: Threshold query (pIC50 >= 6) on `O=C(NCc1cc(F)cc(C(F)(F)F)c1)c1cc(Cl)ccc1O`
Given back: Not fulfilled

Asked: Given `O=C(Nc1cc(F)cc(C(F)(F)F)c1)c1cccc(Cl)c1` , state whether its pIC50 is at least 6.
Given back: Not fulfilled

Asked: Tell me whether pIC50 is at least 6 here: `O=C(Nc1ccc([N+](=O)[O-])cc1)c1cc(Cl)ccc1O`
Given back: Fulfilled

---

# selectivity ratio at 168 h annotations
assayMethodText: Selectivity index, ratio of CC50 for cytotoxicity against human A549 cells to IC50 for antiviral activity against Human adenovirus 5 infected in 293beta5 cells assessed as inhibition of plaque formation after 7 days
Type: toxicity, cell-based
protocolConditions: read-out: Ratio CC50/IC50
Reply briefly: the number, and no unit.

These solved cases illustrate the format of a correct answer.
Asked: In one line, give reported selectivity ratio at 168 h of the entry `O=C(Nc1cc([N+](=O)[O-])ccc1F)c1cc(Cl)ccc1O` .
Given back: 26.2

Asked: Fill in selectivity ratio at 168 h for record `O=C(NCc1ccc(Cl)cc1Cl)c1cc(Cl)ccc1O`
Given back: 17.9

Asked: Provide selectivity ratio at 168 h value for the following molecule: `Cc1ccc(CNC(=O)c2cc(Cl)ccc2O)cc1`
Given back: 10.8

***
Asked: Kindly indicate its recorded selectivity ratio at 168 h. Item: `O=C(Nc1ccc([N+](=O)[O-])cc1F)c1cc(Cl)ccc1O`
Given back: 218

---

The following compounds are shown together with reported pIC50 values.
Tested on: Human adenovirus 5
assayMethodText: Antiviral activity against Human adenovirus 5 infected in 293beta5 cells assessed as inhibition of plaque formation incubated for 7 days by GFP reporter gene assay
Type: functional, organism-based
protocolConditions: Human mastadenovirus C, 293beta5, 168 h
// scale note: pIC50 = -log10(conc_M); give the bare number

Asked: Input `O=C(NCc1ccc(C(F)(F)F)cc1F)c1cc(Cl)ccc1O` , output reported pIC50.
Given back: 5.88

Asked: # return recorded pIC50 for entry `O=C(NCc1ccc(Cl)cc1Cl)c1cc(Cl)ccc1O`
Given back: 5.76

Asked: Annotate the compound `O=C(NCCc1ccc(F)cc1)c1cc(Cl)ccc1O` with its measured pIC50.
Given back: 5.40

Asked: Return reported pIC50. Input compound: `C[C@@H](NC(=O)c1cc(Cl)ccc1O)c1ccc(F)cc1`
Given back: 5.52

Asked: Please report pIC50 for the following compound: `O=C(NCc1ccc([N+](=O)[O-])cc1)c1cc(Cl)ccc1O`
Given back: 5.18

Others:
Asked: Tell me its pIC50 given `O=C(Nc1cc(F)cc(C(F)(F)F)c1)c1ccccc1O` as the entry.
Given back: 5.97

---

assayMethodText: Selectivity index, ratio of CC50 for cytotoxicity against human A549 cells to IC50 for antiviral activity against Human adenovirus 5 infected in 293beta5 cells assessed as inhibition of plaque formation after 7 days
Type: toxicity, cell-based
protocolConditions: read-out: Ratio CC50/IC50
// boundary case: selectivity ratio at 168 h equal to 30 maps to not met; strictly smaller maps to met

Example results:
Asked: hey, is selectivity ratio at 168 h for `O=C(Cc1cc(Cl)ccc1O)Nc1cc(F)cc(C(F)(F)F)c1` lower than 30 or not?
Given back: met

Asked: Problem: For the compound `O=C(NCc1ccc(Cl)cc1)c1cc(Cl)ccc1O` , is selectivity ratio at 168 h under 30?
Given back: met

Continuing:
Asked: State whether 30 exceeds selectivity ratio at 168 h recorded for `O=C(NCc1ccc([N+](=O)[O-])cc1)c1cc(Cl)ccc1O` .
Given back: met

Asked: Please indicate whether the reported selectivity ratio at 168 h of `O=C(NCc1ccc([N+](=O)[O-])cc1Cl)c1cc(Cl)ccc1O` is strictly below 30.
Given back: not met
